Test: self-splicing fitness, log relative to wild type (ln ratio); higher = more splicing; Tetrahymena group I intron in knt gene, E. coli kanamycin selection, DiMSum; sequences stand for … in CUCUCU…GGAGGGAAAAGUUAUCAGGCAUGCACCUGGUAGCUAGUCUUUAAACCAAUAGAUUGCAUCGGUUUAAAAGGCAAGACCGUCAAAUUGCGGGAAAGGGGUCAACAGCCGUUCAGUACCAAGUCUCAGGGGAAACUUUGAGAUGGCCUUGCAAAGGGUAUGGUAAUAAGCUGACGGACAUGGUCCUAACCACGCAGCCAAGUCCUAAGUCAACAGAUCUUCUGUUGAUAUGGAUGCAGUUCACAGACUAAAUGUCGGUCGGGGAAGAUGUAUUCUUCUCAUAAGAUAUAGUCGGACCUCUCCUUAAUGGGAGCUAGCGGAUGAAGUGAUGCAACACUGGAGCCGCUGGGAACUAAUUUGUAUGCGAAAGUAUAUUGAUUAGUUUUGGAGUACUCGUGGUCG;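 further: selection with 25 µg/mL kanamycin versus none on LB agar overnight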
Conditions: 37 °C
Given measured self-splicing fitness (ln), output t if it is greater than or equal to -2 and f if not.

Solved entries (count: 5):
AUAGAGCAAUAUUACGUUGG f
CAUCAGCAAUAUUACGAACG t
CGGCAGCAAUAUUACGCCAC t
GCGGAGCAAUAUUACGUGUU t
GACCAGCAAUAUUACGUGAG t

Exam item: Does CUUGAGCAAUAUUACGAUCU have a reported self-splicing fitness (ln) of at least -2?
Marked response: t

Exam item: Does GGGUAGCAAUAUUACGGAGA have a reported self-splicing fitness (ln) of at least -2?
Marked response: f

Exam item: Does UAAGAGCAAUAUUACGCUCA have a reported self-splicing fitness (ln) of at least -2?
Marked response: t

* * *

Experiment: self-splicing fitness, log relative to wild type (ln ratio); higher = more splicing; Tetrahymena group I intron in knt gene, E. coli kanamycin selection, DiMSum; sequences stand for … in CUCUCU…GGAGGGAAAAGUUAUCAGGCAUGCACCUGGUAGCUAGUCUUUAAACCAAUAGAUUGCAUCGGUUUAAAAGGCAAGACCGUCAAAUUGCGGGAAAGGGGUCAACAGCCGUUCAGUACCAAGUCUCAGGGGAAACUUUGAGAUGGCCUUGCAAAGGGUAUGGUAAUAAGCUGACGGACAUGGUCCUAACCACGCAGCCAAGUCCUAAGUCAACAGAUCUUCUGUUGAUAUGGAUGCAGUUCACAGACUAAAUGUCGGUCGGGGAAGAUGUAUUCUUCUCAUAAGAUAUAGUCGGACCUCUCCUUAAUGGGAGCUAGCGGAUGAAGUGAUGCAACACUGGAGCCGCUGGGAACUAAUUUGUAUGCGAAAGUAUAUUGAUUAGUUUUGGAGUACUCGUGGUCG
Conditions: 37 °C
Given measured self-splicing fitness (ln), output yes (1) if it is greater than or equal to -2 and no (0) if not.

AAUAAGCAAUAUUACGGACA yes (1)
UUCUAGCAAUAUUACGACCA yes (1)
UAACAGCAAUAUUACGUCCA yes (1)
GCGCAGCAAUAUUACGUCGC no (0)
CCGCAGCAAUAUUACGGCGC yes (1)
GGAAAGCAAUAUUACGAGGU no (0)

Exam item: Does CACCAGCAAUAUUACGGUCG have a reported self-splicing fitness (ln) of at least -2?
Marked response: yes (1)

Exam item: Does GGUGAGCAAUAUUACGUAGC have a reported self-splicing fitness (ln) of at least -2?
Marked response: yes (1)

Exam item: Does ACCCAGCAAUAUUACGUCAG have a reported self-splicing fitness (ln) of at least -2?
Marked response: yes (1)

Exam item: Does AGUGAGCAAUAUUACGGAGC have a reported self-splicing fitness (ln) of at least -2?
Marked response: no (0)

Exam item: Does GAACAGCAAUAUUACGUGCG have a reported self-splicing fitness (ln) of at least -2?
Marked response: yes (1)

Exam item: Does AGUAAGCAAUAUUACGUACU have a reported self-splicing fitness (ln) of at least -2?
Marked response: yes (1)

Exam item: Does UGUAAGCAAUAUUACGCACA have a reported self-splicing fitness (ln) of at least -2?
Marked response: yes (1)

Exam item: Does CCUCAGCAAUAUUACGGAGC have a reported self-splicing fitness (ln) of at least -2?
Marked response: no (0)

Exam item: Does UGUCAGCAAUAUUACGAUCA have a reported self-splicing fitness (ln) of at least -2?
Marked response: yes (1)

Exam item: Does GUCGAGCAAUAUUACGACGU have a reported self-splicing fitness (ln) of at least -2?
Marked response: yes (1)

Exam item: Does CGCCAGCAAUAUUACGUGCG have a reported self-splicing fitness (ln) of at least -2?
Marked response: no (0)

Exam item: Does ACUUAGCAAUAUUACGUAUG have a reported self-splicing fitness (ln) of at least -2?
Marked response: no (0)

Exam item: Does UGAAAGCAAUAUUACGGUGA have a reported self-splicing fitness (ln) of at least -2?
Marked response: yes (1)
